Origin of measurements: patent US20220229058A1

testSystem: norovirus GII.3 TCH strain virus-like particle (VLP) (norovirus GII.3 TCH strain)
assayDetails: BLI (BLItz), biotinylated peptide on SA chip, VLP in solution
Where no end group is shown, it is not given here.
measurementType: koff
Give the number first and the unit second.

Examples from the recorded data:
| binder | measurementType | result |
| --- | --- | --- |
| VVGFGRRSLF (also: biotinylated, residue not given here, spacer sequence added, letters and position not given here) [norovirus-binding peptide of SEQ ID NO: 156] | koff | 0.0713 s⁻¹ |
| VELFLLTSSC (also: biotinylated, residue not given here, spacer sequence added, letters and position not given here) [norovirus-binding peptide of SEQ ID NO: 155] | koff | 0.0926 s⁻¹ |

Batch request: koff for each of the following binders.
1. SVMVTRSLFG (also: biotinylated, residue not given here, spacer sequence added, letters and position not given here) [norovirus-binding peptide of SEQ ID NO: 163]
2. GCVGDLYCSA (cysteine pairing not given here; also: biotinylated, residue not given here, spacer sequence added, letters and position not given here) [norovirus-binding peptide of SEQ ID NO: 172]

["0.00786 s⁻¹", "0.0131 s⁻¹"]
